target: Human EphA2 (Ecto) (Human) (UniProt P29317); assay: FP competition, tracer Compound 18
Sequence (P29317 24-537): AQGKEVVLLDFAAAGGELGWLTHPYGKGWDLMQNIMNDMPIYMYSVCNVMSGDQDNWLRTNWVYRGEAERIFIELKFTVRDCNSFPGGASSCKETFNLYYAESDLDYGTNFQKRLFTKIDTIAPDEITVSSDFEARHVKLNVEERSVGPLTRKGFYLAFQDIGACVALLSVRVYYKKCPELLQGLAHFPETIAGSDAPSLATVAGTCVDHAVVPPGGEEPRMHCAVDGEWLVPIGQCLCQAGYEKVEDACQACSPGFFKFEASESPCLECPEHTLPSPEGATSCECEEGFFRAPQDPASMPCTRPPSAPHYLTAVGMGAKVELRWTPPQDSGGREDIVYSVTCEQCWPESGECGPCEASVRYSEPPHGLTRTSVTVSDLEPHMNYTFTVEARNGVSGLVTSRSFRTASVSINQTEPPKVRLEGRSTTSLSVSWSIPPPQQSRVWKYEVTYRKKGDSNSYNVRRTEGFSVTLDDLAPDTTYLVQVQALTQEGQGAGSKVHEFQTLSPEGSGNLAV
Starred links: 1 amine or outer side, 2 acyl side, 3 side chain; linkers in the order of their positions; H or OH if unused. Positions of bridges follow the written chain, without caps; N, C: chain ends. Non-standard residues stand in square brackets, D forms with d. No end group written: not given here. 1Nal = N[C@@H](Cc1cccc2ccccc12)C(=O)O; TBMB = c1c(C[*:1])cc(C[*:3])cc1C[*:2]; Gly(cPent) = N[C@H](C(=O)O)C1CCCC1; hArg = N=C(N)NCCCC[C@H](N)C(=O)O; Tle = CC(C)(C)[C@H](N)C(=O)O; Aib = CC(C)(N)C(=O)O; βAla = NCCC(=O)O; Sar = CNCC(=O)O
assayEndpoint: Ki (pM)
Numbers only, in pM.

Identify Ki associated with the binder Ac-[Sar][Sar]A[dD]VTCP[1Nal]G[Aib]F[1Nal]CP[Tle]N[hArg]PGC (linker 7-14-21 via TBMB) [Bicycle Compound 182]
1160

Identify Ki associated with the binder [βAla][Sar][Sar][Sar][Sar][Sar][Sar][Sar][Sar][Sar][Sar]H[dD][Gly(cPent)]TCP[1Nal]G[Aib]F[1Nal]CP[Tle]NR[Aib]GC (linker 16-23-30 via TBMB) [Bicycle Compound 279]
590

Identify Ki associated with the binder [βAla][Sar][Sar][Sar][Sar][Sar][Sar][Sar][Sar][Sar][Sar]H[dD][Gly(cPent)]PCP[1Nal]G[Aib]F[1Nal]CP[Tle]NR[Aib]GC (linker 16-23-30 via TBMB) [Bicycle Compound 278]
460

Identify Ki associated with the binder Ac-[Sar][Sar]H[dD]VPCP[1Nal]G[Aib]F[1Nal]CP[Tle]N[hArg]PGC (linker 7-14-21 via TBMB) [Bicycle Compound 253]
850

Now let's try a different one.
Identify Ki associated with the binder [βAla][Sar][Sar][Sar][Sar][Sar][Sar][Sar][Sar][Sar][Sar]H[dD]VPCPWGP[hArg]WCP[Tle]N[hArg]P[dD]C (linker 16-23-30 via TBMB) [Bicycle Compound 272]
3990
